- assay remarks: Caspase-3/7 induction in CHO-K1 cells by small molecules, qHTS cell viability counter screen (AID 1346979); note: % is set by controls: 0 for no effect and ±100 for the full control effect; nearly all actives have a fitted effect of over 35% in size
- test context: CellTiter-Fluor fluorescence, 17 h; series mostly up to 92.4 µM
Inconclusive results are not listed. Active and inactive are the calls of the source. Calls come from the whole dose curve; as a rule, active = well fitted cell-killing curve with a large enough effect in the repeat runs; inconclusive = weak or mixed curves, or effect the other way; inactive = no such curve, though single readings can be large or run the other way.

>  <molecule>
C=CCOc1nc(OCC=C)nc(OCC=C)n1

>  <activity change, negative = cytotoxicity>
inactive

$$$$
>  <molecule>
NC(N)=NS(=O)(=O)c1ccc(N)cc1

>  <activity change, negative = cytotoxicity>
inactive

$$$$
>  <molecule>
CC(C)COC(=O)C(C)C

>  <activity change, negative = cytotoxicity>
inactive

$$$$
>  <molecule>
NC(=O)c1c(Cl)cccc1Cl

>  <activity change, negative = cytotoxicity>
inactive

$$$$
>  <molecule>
Nc1ncnc2c1ncn2Cc1c(F)cccc1Cl

>  <activity change, negative = cytotoxicity>
inactive

$$$$
>  <molecule>
CC(C)(C)OC(=O)N1C[C@@H](F)C[C@H]1C(=O)O

>  <activity change, negative = cytotoxicity>
inactive

$$$$
>  <molecule>
COc1ccc(NC(C)=O)cc1

>  <activity change, negative = cytotoxicity>
inactive

$$$$
>  <molecule>
CCCCCCCCCCCl

>  <activity change, negative = cytotoxicity>
inactive

$$$$
>  <molecule>
CCc1cc(S(=O)(=O)O)c2cc(C(C)C)cccc1-2

>  <activity change, negative = cytotoxicity>
inactive

$$$$
>  <molecule>
CC(C)c1ccc2oc3nc(N)c(C(=O)O)cc3c(=O)c2c1

>  <activity change, negative = cytotoxicity>
inactive

$$$$
>  <molecule>
N[C@@H](CS)C(=O)O

>  <activity change, negative = cytotoxicity>
inactive

$$$$
>  <molecule>
CCCCCCCCN(C)CCCCCCCC

>  <activity change, negative = cytotoxicity>
inactive

$$$$
>  <molecule>
C#CC(O)C(CC)CCCC (stereo not given)

>  <activity change, negative = cytotoxicity>
inactive

$$$$
>  <molecule>
Cc1ncc(CSSCc2cnc(C)c(O)c2CO)c(CO)c1O

>  <activity change, negative = cytotoxicity>
inactive

$$$$
>  <molecule>
Oc1cc(O)c2c(c1)O[C@H](c1ccc(O)c(O)c1)[C@H](O)C2

>  <activity change, negative = cytotoxicity>
inactive

$$$$
>  <molecule>
CCN1CCN(c2cc3c(cc2F)c(=O)c(C(=O)O)cn3C2CC2)CC1

>  <activity change, negative = cytotoxicity>
inactive

$$$$
>  <molecule>
CCCCOCC(C)OCC(C)O (stereo not given)

>  <activity change, negative = cytotoxicity>
inactive

$$$$
>  <molecule>
N#CCN(CC#N)CCN(CC#N)CC#N

>  <activity change, negative = cytotoxicity>
inactive

$$$$
>  <molecule>
CCN1CCCC(OC(=O)C(c2ccccc2)c2ccccc2)C1 (stereo not given)

>  <activity change, negative = cytotoxicity>
inactive

$$$$
>  <molecule>
O=C(O)c1cccc(C(=O)O)n1

>  <activity change, negative = cytotoxicity>
inactive

$$$$
>  <molecule>
CC(C)=CC(=O)O

>  <activity change, negative = cytotoxicity>
inactive

$$$$
>  <molecule>
CC(C)CCCCCCN

>  <activity change, negative = cytotoxicity>
inactive

$$$$
>  <molecule>
CC(O)CN(CCCN(C)C)CCCN(C)C (stereo not given)

>  <activity change, negative = cytotoxicity>
inactive

$$$$
>  <molecule>
Nc1ccn(C2CO[C@H](CO)O2)c(=O)n1 (stereo not given in full)

>  <activity change, negative = cytotoxicity>
inactive

$$$$
>  <molecule>
Cc1ccccc1Br

>  <activity change, negative = cytotoxicity>
inactive

$$$$
>  <molecule>
O=C(O)/C=C/c1ccc(Cn2ccnc2)cc1

>  <activity change, negative = cytotoxicity>
inactive

$$$$
>  <molecule>
CCCCc1ccc(N)cc1

>  <activity change, negative = cytotoxicity>
inactive

$$$$
>  <molecule>
COC(=O)C1=C(C)NC(C)=C(C(=O)OCC(C)=O)C1c1ccccc1[N+](=O)[O-] (stereo not given)

>  <activity change, negative = cytotoxicity>
inactive

$$$$
>  <molecule>
OC/C=C/c1ccccc1

>  <activity change, negative = cytotoxicity>
inactive

$$$$
>  <molecule>
CCCC(C)C(=O)O (stereo not given)

>  <activity change, negative = cytotoxicity>
inactive

$$$$

====

- assay remarks: qHTS assay to identify small molecule agonists of the estrogen receptor beta (ER-beta) signaling pathway - cell viability counter screen (AID 1259380); note: % is set by controls: 0 for no effect and ±100 for the full control effect; nearly all actives have a fitted effect of over 30% in size
- test context: ER-beta-bla HEK293T viability, CellTiter-Glo luminescence, 16 h; series mostly up to 92.4 µM
Inconclusive results are not listed. The source made the active and inactive calls. Calls come from the whole dose curve; as a rule, active = well fitted cell-killing curve with a large enough effect in the repeat runs; inconclusive = weak or mixed curves, or effect the other way; inactive = flat fitted curve, though single readings scatter.
endpoint name: activity change, negative = cytotoxicity

>  <compound>
CC(C)CCOC(=O)CC(C)C

>  <meas value>
inactive

$$$$
>  <compound>
CCCCCCCCCCC1CO1 (stereo not given)

>  <meas value>
inactive

$$$$
>  <compound>
CCCCCCCCN(C)CCCCCCCC

>  <meas value>
inactive

$$$$
>  <compound>
OC/C=C/c1ccccc1

>  <meas value>
inactive

$$$$
>  <compound>
C[N+](C)(C)CC[N+]1(C)Cc2c(Cl)c(Cl)c(Cl)c(Cl)c2C1

>  <meas value>
inactive

$$$$
>  <compound>
N#CCN(CC#N)CCN(CC#N)CC#N

>  <meas value>
inactive

$$$$
>  <compound>
CC(C)CCCC(C)CCCC(C)CCCCC(C)CCCC(C)CCCC(C)C (stereo not given)

>  <meas value>
inactive

$$$$
>  <compound>
C=CC(=O)N1CCOCC1

>  <meas value>
inactive

$$$$
>  <compound>
CCCCNc1ccccc1

>  <meas value>
inactive

$$$$
>  <compound>
CCCC=O

>  <meas value>
inactive

$$$$
>  <compound>
CC(=O)NC(Cc1ccccc1)C(=O)O (stereo not given)

>  <meas value>
inactive

$$$$
>  <compound>
C1CCCCCCCCCCC1

>  <meas value>
-0.0692% [at 19 µM] (inactive)

$$$$
>  <compound>
NC(=O)Nc1nc2ccccc2[nH]1

>  <meas value>
inactive

$$$$
>  <compound>
C1=C\CC/C=C\CC/C=C\CC/1

>  <meas value>
inactive

$$$$
>  <compound>
CCCCc1ccc2cccc(S(=O)(=O)O)c2c1

>  <meas value>
inactive

$$$$

====

- assay remarks: A CellTox Green Cytotoxicity Assay to monitor cytotoxicity in HepG2 cells - 32 hour (AID 1224883); note: % is set by controls: 0 for no effect and ±100 for the full control effect; nearly all actives have a fitted effect of over 50% in size
- test context: CellTox Green fluorescence; series mostly up to 76.8 µM
Results filed as inconclusive are left out. Active and inactive are the calls of the source. Calls come from the whole dose curve; as a rule, active = well fitted activation curve with a large enough effect in the repeat runs; inconclusive = weak or mixed curves; inactive = flat fitted curve, though single readings scatter.

>  <compound>
CCCCCCCCCCCCCCC

>  <outcome>
inactive

$$$$
>  <compound>
Cc1cc(C)cc(OCC2CNC(=O)O2)c1 (centres undefined)

>  <outcome>
inactive

$$$$
>  <compound>
NC(=O)Nc1nc2ccccc2[nH]1

>  <outcome>
inactive

$$$$
>  <compound>
C=C(C)C(=O)NCCC[N+](C)(C)C

>  <outcome>
inactive

$$$$
>  <compound>
Oc1ccc2c(c1)OC[C@@H](N1CCC(O)(c3ccc(F)cc3)CC1)[C@H]2O

>  <outcome>
inactive

$$$$
>  <compound>
CC1=CCC2C(C1)C2(C)C (centres undefined)

>  <outcome>
inactive

$$$$
>  <compound>
CC1CCN(CCCC(=O)c2ccc(F)cc2)CC1

>  <outcome>
inactive

$$$$
>  <compound>
CCN1CCCC(OC(=O)C(c2ccccc2)c2ccccc2)C1 (centres undefined)

>  <outcome>
inactive

$$$$
>  <compound>
CCN(CC)C(=O)c1ccc(O)c(OC)c1

>  <outcome>
inactive

$$$$
>  <compound>
CO[Si](OC)(OC)OC

>  <outcome>
inactive

$$$$
>  <compound>
C[C@H](O)C(=O)Nc1c(I)c(C(=O)NC(CO)CO)c(I)c(C(=O)NC(CO)CO)c1I

>  <outcome>
inactive

$$$$
>  <compound>
CCCC(C)C(=O)O (centres undefined)

>  <outcome>
inactive

$$$$
>  <compound>
C=CCOc1nc(OCC=C)nc(OCC=C)n1

>  <outcome>
inactive

$$$$
>  <compound>
NC(=O)CCCCC1CCSS1 (centres undefined)

>  <outcome>
inactive

$$$$

====

- assay remarks: qHTS assay to identify small molecule agonists of the retinoic acid receptor (RAR) signaling pathway (AID 1159553); for activation: % is set by controls: 0 for no effect and ±100 for the full control effect
- test context: C3RL4 RARE luciferase reporter, agonist, 6 h; series mostly up to 73.3 µM
Inconclusive results are not listed. The source made the active and inactive calls. Calls follow the shape of the dose curve; as a rule, active = well fitted activation curve with a large enough effect in the repeat runs; inconclusive = weak or mixed curves, or effect the other way; inactive = no such curve, though single readings can be large or run the other way.
Classes used: T (active), F (inactive)

>  <compound>
CCCCCCCCCCCCCCC

>  <class>
F

$$$$
>  <compound>
CC(=O)NC(Cc1ccccc1)C(=O)O (stereo not drawn)

>  <class>
F

$$$$
>  <compound>
CCCCNc1ccccc1

>  <class>
F

$$$$
>  <compound>
OCCCCCCO

>  <class>
F

$$$$
>  <compound>
C1=C\CC/C=C\CC/C=C\CC/1

>  <class>
F

$$$$
>  <compound>
NC(=O)c1ncn([C@@H]2O[C@H](CO)[C@@H](O)[C@H]2O)c1N

>  <class>
F

$$$$
>  <compound>
CC(C)(C)N(CCO)CCO

>  <class>
F

$$$$
>  <compound>
CC(C)(O)Cc1ccccc1

>  <class>
F

$$$$
>  <compound>
Cn1ccc2cc3c(cc21)CCN3C(=O)Nc1cccnc1

>  <class>
T

$$$$
>  <compound>
c1ccc(SCCSc2ccccc2)cc1

>  <class>
T

$$$$
>  <compound>
CCCC(C)CO (stereo not drawn)

>  <class>
F

$$$$
>  <compound>
COC(=O)c1ccc(C(=O)OC)c(C(=O)OC)c1

>  <class>
F

$$$$
>  <compound>
CCC(=O)c1cccc(Cl)c1

>  <class>
F

$$$$
